Values compiled from PubChem BioAssay (NCI).

Recorded TGI for the following compounds
Tested on: SK-MEL-2 melanoma
Assay: NCI tumour cell line growth inhibition, 48 h
Assay Endpoint: TGI

Compound: COc1cc(OC)c(-n2[nH]c(=O)n(C)c2=O)c(OC)c1
Study Target: SK-MEL-2 melanoma
Recorded Result: > 100 µM
//
Compound: Nc1nc(N)c2cc(S(=O)(=O)c3cccc(C(F)(F)F)c3)ccc2n1
Study Target: SK-MEL-2 melanoma
Recorded Result: 73.2 µM
//
Compound: C#CCOC(=O)C=[N+]=[N-]
Study Target: SK-MEL-2 melanoma
Recorded Result: > 10 µM
//
Compound: CN1CCN(c2ccc3nc(-c4[nH]ncc4Nc4ncnc5[nH]ccc45)[nH]c3c2)CC1
Study Target: SK-MEL-2 melanoma
Recorded Result: 1.91 µM
//
Compound: CC1=C[C@H](C[C@]2(C)c3c(c4c(C)cccc4oc3=O)O[C@@H]2C)OC1=O
Study Target: SK-MEL-2 melanoma
Recorded Result: > 100 µM
//
Compound: COC(=O)C12C(=O)CC3CCC1C32C(=O)OC (stereo unspecified)
Study Target: SK-MEL-2 melanoma
Recorded Result: > 100 µM
//
Compound: CC1COS(=O)N1c1ccccc1 (stereo unspecified)
Study Target: SK-MEL-2 melanoma
Recorded Result: > 100 µM
//
Compound: Cc1ccccc1NC(=O)C(=O)C(C1OC(=O)c2ccccc21)[N+](=O)[O-] (stereo unspecified)
Study Target: SK-MEL-2 melanoma
Recorded Result: > 100 µM
//
Compound: [Cu].c1ccc2c(c1)C1=NC2=NC2=NC(=NC3=NC(=NC4=NC(=N1)c1ccccc14)c1ccccc13)c1ccccc12
Study Target: SK-MEL-2 melanoma
Recorded Result: > 100 µM
//
Compound: Cc1cc(C)c2c(-c3ccccc3)cc(=O)[nH]c2c1
Study Target: SK-MEL-2 melanoma
Recorded Result: > 100 µM
//
Compound: O=[N+]([O-])C1=Cc2c(O)ccc(O)c2C2OC=CC12 (stereo unspecified)
Study Target: SK-MEL-2 melanoma
Recorded Result: 41 µM
